- systemTested: Bacterial DNA-directed RNA polymerase (Bacteria) (UniProt P0A8V2+P0A7Z4+P0A8T7+P0A800)
- Sequence (P0A7Z4 whole entry partner): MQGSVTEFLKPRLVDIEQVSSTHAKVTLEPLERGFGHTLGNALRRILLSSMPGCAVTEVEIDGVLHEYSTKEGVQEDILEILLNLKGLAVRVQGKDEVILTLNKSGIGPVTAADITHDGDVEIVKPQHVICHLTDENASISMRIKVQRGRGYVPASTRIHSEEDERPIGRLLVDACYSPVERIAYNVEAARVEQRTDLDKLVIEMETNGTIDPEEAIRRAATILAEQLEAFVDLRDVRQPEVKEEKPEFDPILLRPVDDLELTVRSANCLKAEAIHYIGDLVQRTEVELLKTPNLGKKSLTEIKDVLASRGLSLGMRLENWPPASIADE
- Sequence (P0A800 2-91 partner limits assumed): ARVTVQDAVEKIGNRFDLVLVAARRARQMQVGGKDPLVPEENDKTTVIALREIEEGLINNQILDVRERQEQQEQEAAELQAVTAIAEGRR
- Sequence (P0A8T7 whole entry partner): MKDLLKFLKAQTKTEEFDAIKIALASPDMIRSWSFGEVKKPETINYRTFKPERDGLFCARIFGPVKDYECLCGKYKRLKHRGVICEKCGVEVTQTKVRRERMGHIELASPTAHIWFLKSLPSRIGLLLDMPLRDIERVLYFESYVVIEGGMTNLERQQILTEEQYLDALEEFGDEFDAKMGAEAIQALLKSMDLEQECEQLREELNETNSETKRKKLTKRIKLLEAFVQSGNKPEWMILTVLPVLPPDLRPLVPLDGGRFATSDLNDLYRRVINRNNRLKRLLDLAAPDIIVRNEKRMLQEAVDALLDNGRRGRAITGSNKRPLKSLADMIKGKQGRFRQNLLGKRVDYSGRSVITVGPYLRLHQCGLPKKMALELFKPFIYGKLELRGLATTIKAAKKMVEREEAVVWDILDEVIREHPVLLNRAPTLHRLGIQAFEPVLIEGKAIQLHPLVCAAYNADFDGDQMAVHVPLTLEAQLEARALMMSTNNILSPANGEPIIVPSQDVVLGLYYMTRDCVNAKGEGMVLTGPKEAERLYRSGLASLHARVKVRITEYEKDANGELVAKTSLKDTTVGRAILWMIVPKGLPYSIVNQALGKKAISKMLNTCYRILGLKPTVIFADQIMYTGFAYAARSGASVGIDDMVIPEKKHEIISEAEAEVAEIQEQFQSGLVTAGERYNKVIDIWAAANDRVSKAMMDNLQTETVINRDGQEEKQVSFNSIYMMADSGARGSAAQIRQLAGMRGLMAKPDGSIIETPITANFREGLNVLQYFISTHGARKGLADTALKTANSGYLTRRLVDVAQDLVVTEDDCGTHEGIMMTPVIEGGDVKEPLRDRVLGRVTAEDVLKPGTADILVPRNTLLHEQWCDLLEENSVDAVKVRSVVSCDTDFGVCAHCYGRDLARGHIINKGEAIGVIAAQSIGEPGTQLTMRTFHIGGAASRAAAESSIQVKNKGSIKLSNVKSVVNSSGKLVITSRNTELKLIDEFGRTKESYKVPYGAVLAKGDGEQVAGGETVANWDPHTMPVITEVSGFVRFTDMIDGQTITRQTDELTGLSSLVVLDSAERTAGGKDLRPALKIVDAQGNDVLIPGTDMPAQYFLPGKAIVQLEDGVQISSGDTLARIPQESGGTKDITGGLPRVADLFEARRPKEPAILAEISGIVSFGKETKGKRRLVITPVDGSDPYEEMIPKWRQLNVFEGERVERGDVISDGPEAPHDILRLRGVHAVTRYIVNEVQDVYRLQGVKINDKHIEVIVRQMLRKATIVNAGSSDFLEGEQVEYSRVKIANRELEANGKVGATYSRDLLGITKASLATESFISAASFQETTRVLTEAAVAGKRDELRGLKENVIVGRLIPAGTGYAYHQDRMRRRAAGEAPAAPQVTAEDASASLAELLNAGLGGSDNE
- Sequence (P0A8V2 whole entry): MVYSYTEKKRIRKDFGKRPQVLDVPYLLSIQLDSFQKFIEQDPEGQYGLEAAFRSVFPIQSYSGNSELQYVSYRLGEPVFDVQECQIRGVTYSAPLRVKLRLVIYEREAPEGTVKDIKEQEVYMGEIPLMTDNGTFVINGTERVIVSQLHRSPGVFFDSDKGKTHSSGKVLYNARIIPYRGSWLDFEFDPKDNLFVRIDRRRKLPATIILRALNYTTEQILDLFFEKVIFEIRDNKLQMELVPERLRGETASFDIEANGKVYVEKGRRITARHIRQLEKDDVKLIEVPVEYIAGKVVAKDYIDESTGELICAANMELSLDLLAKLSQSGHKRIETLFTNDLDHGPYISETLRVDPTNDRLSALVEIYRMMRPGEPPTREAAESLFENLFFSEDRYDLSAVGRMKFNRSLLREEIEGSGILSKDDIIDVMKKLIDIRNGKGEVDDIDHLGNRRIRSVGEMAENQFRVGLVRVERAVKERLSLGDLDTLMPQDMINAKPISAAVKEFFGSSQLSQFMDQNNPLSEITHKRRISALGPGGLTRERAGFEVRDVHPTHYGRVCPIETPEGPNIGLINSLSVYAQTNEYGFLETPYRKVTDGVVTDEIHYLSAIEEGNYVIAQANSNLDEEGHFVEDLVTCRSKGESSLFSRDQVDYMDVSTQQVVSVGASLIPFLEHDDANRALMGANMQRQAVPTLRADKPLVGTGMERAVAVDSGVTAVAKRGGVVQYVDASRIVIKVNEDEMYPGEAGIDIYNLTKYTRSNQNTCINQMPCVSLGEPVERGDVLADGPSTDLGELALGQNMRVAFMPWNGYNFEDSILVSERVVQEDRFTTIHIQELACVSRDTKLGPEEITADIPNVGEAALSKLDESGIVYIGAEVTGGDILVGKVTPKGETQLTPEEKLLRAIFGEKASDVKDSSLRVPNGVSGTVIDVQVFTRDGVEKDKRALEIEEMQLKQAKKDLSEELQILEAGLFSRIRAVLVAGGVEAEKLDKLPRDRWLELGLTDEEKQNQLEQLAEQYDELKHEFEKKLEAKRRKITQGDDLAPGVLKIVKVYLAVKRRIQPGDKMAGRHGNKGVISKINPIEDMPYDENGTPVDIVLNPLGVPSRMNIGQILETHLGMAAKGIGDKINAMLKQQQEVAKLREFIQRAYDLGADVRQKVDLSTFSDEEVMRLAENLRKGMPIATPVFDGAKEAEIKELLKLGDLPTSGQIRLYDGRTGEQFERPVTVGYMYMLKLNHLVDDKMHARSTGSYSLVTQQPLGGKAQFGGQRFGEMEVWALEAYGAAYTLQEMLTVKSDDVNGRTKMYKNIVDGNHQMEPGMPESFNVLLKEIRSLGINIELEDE
- testMethodNotes: Inhibition of Escherichia coli DNA-dependent RNA polymerase at 2.5 ug/ml using Micrococcus luteus DNA as primer
- Assay type: protein-complex assay
Numbered stars: 1 amine (or outer) side, 2 acyl side, 3 side chain; on linkers, the order of the positions; unused ones are H or OH. Bridge positions count the residues as written; N and C are the ends. Square brackets hold non-standard residues; d marks the D form. Peptide text beside a SMILES is read from it. I, II: the chains in the order shown. Actinocin(9to1) = Cc1c2oc3c(C)ccc(C(=O)[*:1])c3nc-2c(C(=O)[*:2])c(N)c1=O; NMeV = CN[C@H](C(=O)O)C(C)C; Sar = CNCC(=O)O

compound: Cc1c2oc3c(C)ccc(C(=O)N[C@@H]4C(=O)N[C@H](C(C)C)C(=O)N5CCC[C@H]5C(=O)N(C)CC(=O)N(C)[C@@H](C(C)C)C(=O)O[C@@H]4C)c3nc-2c(C(=O)N[C@@H]2C(=O)N[C@H](C(C)C)C(=O)N3CCC[C@H]3C(=O)N(C)CC(=O)N(C)[C@@H](C(C)C)C(=O)O[C@@H]2C)c(NC2CC(C)(C)N([O])C(C)(C)C2)c1=O
inhibition, %: 21
--
compound: Cc1c2oc3c(C)ccc(C(=O)N[C@@H]4C(=O)N[C@H](C(C)C)C(=O)N5CCC[C@H]5C(=O)N(C)CC(=O)N(C)[C@@H](C(C)C)C(=O)O[C@@H]4C)c3nc-2c(C(=O)N[C@@H]2C(=O)N[C@H](C(C)C)C(=O)N3CCC[C@H]3C(=O)N(C)CC(=O)N(C)[C@@H](C(C)C)C(=O)O[C@@H]2C)c(N)c1=O [DACTINOMYCIN] (I: T[dV]P[Sar][NMeV] / II: T[dV]P[Sar][NMeV]; ester I:1-I:C, II:1-II:C; linker I:N-II:N via Actinocin(9to1))
inhibition, %: 92
--
compound: Cc1c2oc3c(C)ccc(C(=O)N[C@@H]4C(=O)N[C@H](C(C)C)C(=O)N5CCC[C@H]5C(=O)N(C)CC(=O)N(C)[C@@H](C(C)C)C(=O)O[C@@H]4C)c3nc-2c(C(=O)N[C@@H]2C(=O)N[C@H](C(C)C)C(=O)N3CCC[C@H]3C(=O)N(C)CC(=O)N(C)[C@@H](C(C)C)C(=O)O[C@@H]2C)c(NCCNC2CC(C)(C)N([O])C(C)(C)C2)c1=O
inhibition, %: 42
--
compound: Cc1c2oc3c(C)ccc(C(=O)N[C@@H]4C(=O)N[C@H](C(C)C)C(=O)N5CCC[C@H]5C(=O)N(C)CC(=O)N(C)[C@@H](C(C)C)C(=O)O[C@@H]4C)c3nc-2c(C(=O)N[C@@H]2C(=O)N[C@H](C(C)C)C(=O)N3CCC[C@H]3C(=O)N(C)CC(=O)N(C)[C@@H](C(C)C)C(=O)O[C@@H]2C)c(NCCCNC2CC(C)(C)N([O])C(C)(C)C2)c1=O
inhibition, %: 22
